Biological target: T1, EsCas13d, nuclease-dead (Eubacterium siraeum, UniProt B0MS50, R295A;H300A;R849A;H854A)
T1 sequence: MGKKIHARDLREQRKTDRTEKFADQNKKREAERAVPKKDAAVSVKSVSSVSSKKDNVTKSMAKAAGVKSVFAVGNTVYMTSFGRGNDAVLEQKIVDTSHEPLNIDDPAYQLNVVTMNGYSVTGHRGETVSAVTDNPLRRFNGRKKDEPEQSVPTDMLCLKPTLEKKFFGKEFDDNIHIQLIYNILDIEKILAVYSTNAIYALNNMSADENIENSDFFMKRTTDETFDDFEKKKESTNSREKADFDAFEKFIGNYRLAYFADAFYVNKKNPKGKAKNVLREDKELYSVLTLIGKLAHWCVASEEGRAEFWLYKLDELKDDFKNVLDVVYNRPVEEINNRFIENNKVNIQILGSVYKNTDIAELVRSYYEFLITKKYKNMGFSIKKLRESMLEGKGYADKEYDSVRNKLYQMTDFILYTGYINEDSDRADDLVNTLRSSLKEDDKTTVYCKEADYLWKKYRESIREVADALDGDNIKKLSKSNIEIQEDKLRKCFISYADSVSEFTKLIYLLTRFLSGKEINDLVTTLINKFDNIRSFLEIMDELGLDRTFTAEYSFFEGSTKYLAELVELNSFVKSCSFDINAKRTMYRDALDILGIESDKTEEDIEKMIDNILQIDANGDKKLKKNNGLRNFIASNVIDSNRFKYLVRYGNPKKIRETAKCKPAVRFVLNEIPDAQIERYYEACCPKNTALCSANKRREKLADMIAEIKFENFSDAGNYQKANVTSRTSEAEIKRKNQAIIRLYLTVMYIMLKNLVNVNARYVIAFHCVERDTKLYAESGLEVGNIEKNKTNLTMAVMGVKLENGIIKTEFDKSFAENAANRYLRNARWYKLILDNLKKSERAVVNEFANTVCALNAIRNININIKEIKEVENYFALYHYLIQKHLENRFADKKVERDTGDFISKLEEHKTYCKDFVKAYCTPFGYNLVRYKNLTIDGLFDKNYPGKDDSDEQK
Assay: crRNA (strand 1, pre-loaded); Mg2+; 40 mM Tris-HCl pH 7.5, 150 mM NaCl, 6 mM MgCl2, 1 mM DTT, 0.1% Tween-20, 0.2 mg/ml BSA; 25 C; 10 min per concentration, then washed
Conditions: tags: His6-TwinStrep-SUMO cleaved; N-terminal SNAP kept (SNAP-Surface 488); label: 3' end held by stalled T7 RNA polymerase
propertyLabel: pKd
# reply with the number alone; pKd is -log10 of concentration in mol/L

INSERT INTO measurements (binder, reportedresult) VALUES
  ('target 1 C6A,C22G (mixed) RNA 1: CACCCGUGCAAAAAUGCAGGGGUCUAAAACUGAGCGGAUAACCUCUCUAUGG RNA 2: GGGAAUGGAUCCACAUCUACGAAUUCGUAGCAUAGAGAGGUUAUCAGCUCACCGAGAUCGGAAGAGCACACGU', 7.41);

*Q* What value of pKd has been recorded for this entry: target 2 MT 5'PFS AUA 3'PFS UCA (mixed) RNA 1: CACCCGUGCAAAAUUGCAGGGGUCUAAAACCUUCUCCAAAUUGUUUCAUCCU RNA 2: GGGAAUGGAUCCACAUCUACGAAUUCAUAAGGAUGAAACAAUUUGGAGAAGUCAAGAUCGGAAGAGCACACGU
*A* 7.91

*Q* target 1 insU 3' of 12,insC 3' of 11 (mixed) RNA 1: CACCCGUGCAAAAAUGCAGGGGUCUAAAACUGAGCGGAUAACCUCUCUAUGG RNA 2: GGGAAUGGAUCCACAUCUACGAAUUCGUACCAUAGAGAGGUUCUAUCCGCUCACCGAGAUCGGAAGAGCACACGU , same question.
*A* 7.60
